MEASURED TARGET: Tyk2 (Homo sapiens)
Construct: purchased Invitrogen
PROTOCOL NOTES: Tyk2 enzyme inhibition test (LANCE method)
Type: biochemical
CONDITION SET: test compound 1 μM; read-out: Inhibitory rate (%) Tyk2 1 μM
ENDPOINT: inhibition at 1 µM (%)
Answers are plain numbers, in %.

Use the examples below as a reference point.
COMPOUND	OBS VALUE
NC(=O)c1cc(-c2nn(-c3c(F)cccc3F)c3c(Br)c[nH]c(=O)c23)cs1 [Example 144]	95
CC(C)(C)NC(=O)c1cc(-c2cn(C3CCCC3)c3c(C#N)c[nH]c(=O)c23)cs1 [Example 123]	99
N#Cc1cc(F)c(-n2nc(-c3ccc(N4CCOCC4)cc3)c3c(=O)[nH]ccc32)c(F)c1 [Example 244]	97

Could you now consider this next compound?
Given item N#CCc1ccc(-c2nn(-c3c(F)cccc3F)c3c(Br)c[nH]c(=O)c23)cc1 [Example 104] , the value recorded as its inhibition at 1 µM is 99

---

MEASURED TARGET: Tyk2 (Homo sapiens)
Construct: purchased Invitrogen
PROTOCOL NOTES: Tyk2 enzyme inhibition test (LANCE method)
Type: biochemical
CONDITION SET: test compound 1 μM; read-out: Inhibitory rate (%) Tyk2 1 μM
ENDPOINT: inhibition at 1 µM (%)
Answers are plain numbers, in %.

Use the examples below as a reference point.
MOLECULAR STRING	MEASURED TARGET	inhibition at 1 µM / %
NS(=O)(=O)c1ccc(-c2nn(-c3ccccc3)c3cc[nH]c(=O)c23)cc1	Tyk2 (Homo sapiens)	92
O=c1[nH]ccc2c1c(-c1ccc3c(c1)OCO3)nn2C1CCCC1	Tyk2 (Homo sapiens)	89

// assay Tyk2 (Homo sapiens), entry N#Cc1c[nH]c(=O)c2c(-c3cccc(N4CCOCC4)c3)cn(C3CCCC3)c12 , inhibition at 1 µM value = 91

---

Can you tell me inhibition at 1 µM for the items I'm about to list?
MEASURED TARGET: JAK1 (Homo sapiens, UniProt P23458)
Construct: purchased Invitrogen
Sequence (P23458 whole entry): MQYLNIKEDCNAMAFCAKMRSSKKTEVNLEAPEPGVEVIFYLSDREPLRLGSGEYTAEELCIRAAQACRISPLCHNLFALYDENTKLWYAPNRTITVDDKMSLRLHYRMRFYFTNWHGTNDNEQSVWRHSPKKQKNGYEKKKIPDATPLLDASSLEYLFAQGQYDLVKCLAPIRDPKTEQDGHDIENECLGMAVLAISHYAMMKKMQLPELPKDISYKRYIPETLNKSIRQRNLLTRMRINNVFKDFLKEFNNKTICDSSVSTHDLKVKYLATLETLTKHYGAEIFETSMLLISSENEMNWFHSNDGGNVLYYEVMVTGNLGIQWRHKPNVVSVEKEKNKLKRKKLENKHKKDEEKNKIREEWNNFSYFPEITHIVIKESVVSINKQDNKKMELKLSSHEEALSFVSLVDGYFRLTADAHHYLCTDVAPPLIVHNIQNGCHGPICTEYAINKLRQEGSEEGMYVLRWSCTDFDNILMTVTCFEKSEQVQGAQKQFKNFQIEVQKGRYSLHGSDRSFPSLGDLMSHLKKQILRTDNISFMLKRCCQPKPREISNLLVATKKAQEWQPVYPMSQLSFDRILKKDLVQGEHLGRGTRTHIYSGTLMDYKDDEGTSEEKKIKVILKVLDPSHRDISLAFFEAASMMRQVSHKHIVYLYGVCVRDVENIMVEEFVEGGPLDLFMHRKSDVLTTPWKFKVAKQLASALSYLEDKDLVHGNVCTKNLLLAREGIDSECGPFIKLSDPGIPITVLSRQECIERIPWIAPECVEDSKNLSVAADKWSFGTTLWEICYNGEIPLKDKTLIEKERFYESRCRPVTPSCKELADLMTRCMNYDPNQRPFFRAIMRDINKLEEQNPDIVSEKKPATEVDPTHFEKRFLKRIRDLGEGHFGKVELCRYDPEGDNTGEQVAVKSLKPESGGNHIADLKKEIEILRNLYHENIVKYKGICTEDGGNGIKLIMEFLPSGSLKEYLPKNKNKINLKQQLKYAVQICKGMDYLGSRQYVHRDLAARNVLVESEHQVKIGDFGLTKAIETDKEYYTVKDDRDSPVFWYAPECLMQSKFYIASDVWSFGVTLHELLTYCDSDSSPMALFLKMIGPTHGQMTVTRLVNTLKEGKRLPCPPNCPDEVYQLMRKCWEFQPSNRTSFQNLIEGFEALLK
PROTOCOL NOTES: JAK1 enzyme inhibition test (LANCE method)
Assay type: biochemical
CONDITION SET: test compound 1 μM; read-out: Inhibitory rate (%) JAK1 1 μM
Answers are plain numbers, in %.

Answered examples (4):
MOLECULE	inhibition at 1 µM, %
NC(=O)c1cc(-c2nn(C3CCC(O)CC3)c3cc[nH]c(=O)c23)cs1 (centres unmarked) [Example 171]	100
O=c1[nH]ccc2c1c(-c1ccc(C(F)(F)F)cc1)nn2C1CCCC1 [Example 51]	90
N#Cc1c[nH]c(=O)c2c1c(C1CCCC1)cn2-c1csc(C(N)=O)c1 [Example 118]	94
NS(=O)(=O)c1ccc(Nc2nn(C3CCCC3)c3cc[nH]c(=O)c23)cc1 [Example 297]	98

Hi! Can you tell me inhibition at 1 µM for each of these molecules?
1. NC(=O)c1cc(-c2nn(-c3c(F)cccc3F)c3c(Br)c[nH]c(=O)c23)cs1 [Example 144]
2. O=c1[nH]ccc2c1c(-c1ccccc1F)nn2C1CCCC1 [Example 56]
3. C[C@@H]1COCCN1c1ccc(-c2nn(-c3c(F)cccc3F)c3cc[nH]c(=O)c23)cc1 [Example 246]

**Result**
99
13
94

Fill in inhibition at 1 µM for each of the 5 molecules listed.
1. NC(=O)c1cc(-c2cn(C3CCCC3)c3cc[nH]c(=O)c23)cs1 [Example 4]
2. O=C1NCCN1c1ccc(-c2nn(-c3c(F)cccc3F)c3cc[nH]c(=O)c23)cc1 [Example 276]
3. C[C@H]1COCCN1c1ccc(-c2nn(-c3c(F)cccc3F)c3cc[nH]c(=O)c23)cc1 [Example 245]
4. CNC(=O)c1cc(F)cc(-c2nn(-c3c(F)cccc3F)c3c(Cl)c[nH]c(=O)c23)c1 [Example 273]
5. O=c1[nH]cc(Cl)c2c1c(-c1ccc(N3CCS(=O)(=O)CC3)cc1)nn2-c1c(F)cccc1F [Example 242]

**Result**
1: 99; 2: 91; 3: 96; 4: 1; 5: 27

// batch mode: one inhibition at 1 µM value per listed entry
1. NS(=O)(=O)c1ccc(-c2cn(C3CCCC3)c3cc[nH]c(=O)c23)cc1 [Example 2]
2. CC[C@H](COC)n1nc(-c2csc(C(N)=O)c2)c2c(=O)[nH]ccc21 [Example 263]

**Result**
1: 99; 2: 97

---

MEASURED TARGET: JAK1 (Homo sapiens)
Construct: purchased Invitrogen
PROTOCOL NOTES: JAK1 enzyme inhibition test (LANCE method)
Format: biochemical
CONDITION SET: test compound 1 μM; read-out: Inhibitory rate (%) JAK1 1 μM
Give measured inhibition at 1 µM for each item. Keep answers brief.
Enter the number, and then the unit.

Please review the entries below; each comes with its answer.
COMPOUND	ENDPOINT	OBS VALUE
N#CCc1ccc(-c2nn(-c3c(F)cccc3F)c3c(Cl)c[nH]c(=O)c23)cc1	inhibition at 1 µM	89%
O=C(O)c1cc(-c2nn(C3CCOCC3)c3cc[nH]c(=O)c23)cs1	inhibition at 1 µM	98%
NS(=O)(=O)c1ccc(-c2nn(CC3CCOC3)c3cc[nH]c(=O)c23)cc1 (stereo not shown)	inhibition at 1 µM	87%

Assay JAK1 (Homo sapiens), sample O=c1[nH]ccc2c1c(-c1ccncc1)nn2C1CCCC1 , inhibition at 1 µM read: 94%

---

Please go through the items and note down their inhibition at 1 µM.
MEASURED TARGET: Tyk2 (Homo sapiens, UniProt P29597)
Construct: purchased Invitrogen
Sequence (P29597 whole entry): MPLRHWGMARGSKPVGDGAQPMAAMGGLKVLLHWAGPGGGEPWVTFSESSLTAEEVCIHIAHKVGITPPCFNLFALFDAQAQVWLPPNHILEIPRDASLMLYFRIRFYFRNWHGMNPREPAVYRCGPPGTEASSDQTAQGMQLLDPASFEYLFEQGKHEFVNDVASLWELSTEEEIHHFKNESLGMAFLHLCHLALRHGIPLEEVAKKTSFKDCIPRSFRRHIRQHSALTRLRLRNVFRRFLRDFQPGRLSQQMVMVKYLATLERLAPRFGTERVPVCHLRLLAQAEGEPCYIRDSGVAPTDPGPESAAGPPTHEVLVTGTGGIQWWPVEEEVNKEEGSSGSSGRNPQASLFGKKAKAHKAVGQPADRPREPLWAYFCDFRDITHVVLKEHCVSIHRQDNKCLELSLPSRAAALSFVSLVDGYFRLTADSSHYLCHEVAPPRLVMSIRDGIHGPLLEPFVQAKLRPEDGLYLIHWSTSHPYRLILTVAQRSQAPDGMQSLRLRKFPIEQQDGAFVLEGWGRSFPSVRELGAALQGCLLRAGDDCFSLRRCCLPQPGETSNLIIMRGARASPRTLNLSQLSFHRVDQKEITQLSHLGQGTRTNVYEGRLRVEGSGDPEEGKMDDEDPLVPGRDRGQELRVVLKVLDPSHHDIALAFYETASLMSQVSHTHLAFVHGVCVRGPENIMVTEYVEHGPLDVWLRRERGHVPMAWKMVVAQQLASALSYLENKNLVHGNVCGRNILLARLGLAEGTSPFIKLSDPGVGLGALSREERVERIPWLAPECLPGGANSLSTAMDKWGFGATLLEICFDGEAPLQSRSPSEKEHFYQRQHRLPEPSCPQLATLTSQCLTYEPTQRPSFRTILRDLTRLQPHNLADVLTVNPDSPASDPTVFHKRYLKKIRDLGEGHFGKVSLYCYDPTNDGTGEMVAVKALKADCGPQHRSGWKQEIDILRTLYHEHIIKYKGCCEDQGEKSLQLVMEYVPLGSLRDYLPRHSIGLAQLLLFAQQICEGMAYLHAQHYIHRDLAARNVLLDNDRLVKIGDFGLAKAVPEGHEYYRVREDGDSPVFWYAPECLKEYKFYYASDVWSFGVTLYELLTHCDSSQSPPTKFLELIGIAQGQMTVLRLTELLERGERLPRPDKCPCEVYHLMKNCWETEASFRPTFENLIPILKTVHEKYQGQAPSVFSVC
PROTOCOL NOTES: Tyk2 enzyme inhibition test (LANCE method)
Format: biochemical
CONDITION SET: test compound 1 μM; read-out: Inhibitory rate (%) Tyk2 1 μM
Answers are plain numbers, in %.

Go through the list and state inhibition at 1 µM for each entry.
1. COC(=O)c1cc(-n2nc(-c3ccccc3C)c3c(Br)c[nH]c(=O)c32)cs1
2. O=c1[nH]ccc2c1c(-c1cccc(CO)c1)nn2-c1c(F)cccc1F
3. NS(=O)(=O)c1ccc(-c2cn(CC(O)CO)c3cc[nH]c(=O)c23)cc1 (stereo not drawn)
4. CCC(CC)n1cc(-c2csc(C(N)=O)c2)c2c(=O)[nH]ccc21
5. CCC(CC)n1cc(-c2csc(C(=O)OC)c2)c2c(=O)[nH]ccc21
6. NS(=O)(=O)c1ccc(-c2nn(CC3CCOC3)c3cc[nH]c(=O)c23)cc1 (stereo not drawn)

**Result**
1. 75
2. 98
3. 92
4. 98
5. 90
6. 66

# batch: return inhibition at 1 µM for each of the 8 compounds below
1. CCC(CC)n1nc(-c2csc(C(N)=O)c2)c2c(=O)[nH]ccc21
2. N#Cc1c[nH]c(=O)c2c(-c3ccc(OCC(N)=O)cc3)cn(C3CCCC3)c12
3. O=c1[nH]cc(Cl)c2c1c(-c1ccc(N3CCOCC3)nc1)nn2-c1c(F)cccc1F
4. O=C(NN1CCOCC1)c1cc(-c2nn(-c3c(F)cccc3F)c3c(Cl)c[nH]c(=O)c23)cs1
5. CNS(=O)(=O)c1ccc(-c2nn(C3CCCC3)c3cc[nH]c(=O)c23)cc1
6. COC(=O)c1cc(-c2nn(C3CCOCC3)c3cc[nH]c(=O)c23)cs1
7. N#Cc1cc(-c2nn(C3CCCC3)c3cc[nH]c(=O)c23)cs1
8. NC(=O)c1ccc(-c2nn(C3CCCC3)c3cc[nH]c(=O)c23)cc1

**Result**
[99, 98, 99, 100, 97, 95, 98, 97]

---

MEASURED TARGET: JAK1 (Homo sapiens, UniProt P23458)
Construct: purchased Invitrogen
PROTOCOL NOTES: JAK1 enzyme inhibition test (LANCE method)
Type: biochemical
CONDITION SET: test compound 1 μM; read-out: Inhibitory rate (%) JAK1 1 μM
Please enter Yes where inhibition at 1 µM is greater than or equal to 90%, and No where it is lower.

MOLECULE	CLASS NAME
O=C1NCCN1c1ccc(-c2nn(-c3c(F)cccc3F)c3c(Cl)c[nH]c(=O)c23)cc1 [Example 225]	No

**Query** Is inhibition at 1 µM at least 90%? Consider N#CCOc1ccc(-c2cn(C3CCCC3)c3c(C#N)c[nH]c(=O)c23)cc1 [Example 121]
**Result** No

**Query** inhibition at 1 µM >= 90% for CNC(=O)Cc1cccc(-c2nn(-c3c(F)cccc3F)c3cc[nH]c(=O)c23)c1 [Example 253] ?
**Result** No

**Query** Does inhibition at 1 µM meet or surpass 90% for O=c1[nH]cc(Br)c2c1c(-c1cn[nH]c1)nn2-c1c(F)cccc1F [Example 176] ?
**Result** Yes
